Cited source for all entries: patent US20120082682A1

- system: T1, human IL-13 (recombinant E. coli-expressed) (human, UniProt P35225 35-146)
- T1 construct: also called hIL-13
- T1 sequence (P35225 other isoform, or with tags, fused parts or gaps limits assumed): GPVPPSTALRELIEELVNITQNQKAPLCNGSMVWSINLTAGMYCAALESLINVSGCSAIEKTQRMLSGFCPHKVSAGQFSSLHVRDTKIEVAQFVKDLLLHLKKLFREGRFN
- protocol_summary: Biacore T100 SPR, purified mAb captured on anti-human IgG, IL13 analyte, 1:1 fit
quantity: Kd (nM)
Respond numerically; units are nM and should not be typed.

binder: A1Y100B IleL1 (antibody, human IgG1, kappa, V domains shown, CDRH3 variant of A1L1) VH: QVQLVQSGAEVKKPGSSVKVSCKASGFYIKDTYMHWVRQAPGQGLEWMGTIDPANGNTKYVPKFQGRVTITADESTSTAYMELSSLRSEDTAVYYCARSIYDDYHIDDYYAMDYWGQGTLVTVSS VL: DIVMTQSPLSLPVTPGEPASISCRSSQNIVHINGNTYLEWYLQKPGQSPRLLIYKISDRFSGVPDRFSGSGSGTDFTLKISRVEADDVGIYYCFQGSHVPWTFGQGTKLEIKR
Kd / nM: 0.049
--
binder: A1L1 (antibody, human IgG1, kappa, V domains shown, Humanised version of murine 6A1, human IgG1 kappa; also called parental; 586 (mAb)) VH: QVQLVQSGAEVKKPGSSVKVSCKASGFYIKDTYMHWVRQAPGQGLEWMGTIDPANGNTKYVPKFQGRVTITADESTSTAYMELSSLRSEDTAVYYCARSIYDDYHYDDYYAMDYWGQGTLVTVSS VL: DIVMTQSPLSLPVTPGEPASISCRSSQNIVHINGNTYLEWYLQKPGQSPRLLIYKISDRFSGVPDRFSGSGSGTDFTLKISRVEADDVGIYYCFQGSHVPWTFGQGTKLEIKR
Kd / nM: 0.366
--
binder: A1Y100B AlaL1 (antibody, human IgG1, kappa, V domains shown, CDRH3 variant of A1L1) VH: QVQLVQSGAEVKKPGSSVKVSCKASGFYIKDTYMHWVRQAPGQGLEWMGTIDPANGNTKYVPKFQGRVTITADESTSTAYMELSSLRSEDTAVYYCARSIYDDYHADDYYAMDYWGQGTLVTVSS VL: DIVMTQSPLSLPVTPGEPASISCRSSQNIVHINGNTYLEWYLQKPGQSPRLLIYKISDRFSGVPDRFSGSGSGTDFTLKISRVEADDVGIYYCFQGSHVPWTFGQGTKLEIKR
Kd / nM: 0.031

Next binder, Kd to be filled in.
Given item A1Y100B TrpL1 (antibody, human IgG1, kappa, V domains shown, CDRH3 variant of A1L1) VH: QVQLVQSGAEVKKPGSSVKVSCKASGFYIKDTYMHWVRQAPGQGLEWMGTIDPANGNTKYVPKFQGRVTITADESTSTAYMELSSLRSEDTAVYYCARSIYDDYHWDDYYAMDYWGQGTLVTVSS VL: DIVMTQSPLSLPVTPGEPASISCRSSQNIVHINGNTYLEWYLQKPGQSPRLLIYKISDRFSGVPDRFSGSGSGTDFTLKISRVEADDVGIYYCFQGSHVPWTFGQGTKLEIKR , the value recorded as its Kd is 0.063
